Recorded Kd, one value per entry.
target: T1, hPD-L1-His (human, UniProt Q9NZQ7 19-238); assay: SPR (Biacore T200), antibody on Protein A chip, hPD-L1-His injected, 1:1 fit
T1 construct: Bought protein; also called hPD-L1-His (manufactured by Edison); not shown: His tag
T1 sequence (Q9NZQ7 19-238 limits assumed): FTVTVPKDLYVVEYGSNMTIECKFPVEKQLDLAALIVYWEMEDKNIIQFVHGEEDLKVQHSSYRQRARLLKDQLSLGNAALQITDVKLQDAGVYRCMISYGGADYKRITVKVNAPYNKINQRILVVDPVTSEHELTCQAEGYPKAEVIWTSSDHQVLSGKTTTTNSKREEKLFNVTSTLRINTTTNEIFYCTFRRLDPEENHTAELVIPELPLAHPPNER
Reply with just the number (in nM).

3F2-H4K3-IgG1 (antibody, V domains shown) VH: DVQLQESGPGLVKPSETLSLTCTVSGYSITSGYNWHWIRQFPGNKLEWMGYIHHSSITNYNPSLKSRITISRDTSKNQFFLQLSSVTAEDTATFYCAREGYDYDWFAYWGQGTLVTVSS VL: DIVLTQSPDTQSVTPKESVTLSCRASQSISNNLHWYQQKSHESPKLLIKYASQSISGIPSRFSGSGSGTDFTLTINSVEAEDFAMYFCQQSKSWPFTFGQGTRLEIK: 0.502
3F2-H4K2-IgG1 (antibody, V domains shown) VH: DVQLQESGPGLVKPSETLSLTCTVSGYSITSGYNWHWIRQFPGNKLEWMGYIHHSSITNYNPSLKSRITISRDTSKNQFFLQLSSVTAEDTATFYCAREGYDYDWFAYWGQGTLVTVSS VL: DIVLTQSPDFQSVTPKEKVTLSCRASQSISNNLHWYQQKPDESPKLLIKYASQSISGIPSRFSGSGSGTDFTLTINSVEAEDFAMYFCQQSKSWPFTFGQGTRLEIK: 0.475
6A11-H1K3-IgG1 (antibody, V domains shown) VH: EVQLVESGGGLVQPGGSLRLSCAASGFTFSSFGMHWVRQAPGKGLEWVSYISSGSNTIYYADTVKGRFTISRDNAKNSLYLQMNSLRAEDTAVYYCARNGYDGWYAMDYWGQGTTVTVSS VL: EIVLTQSPATLSASPGERATLSCSASSSVSYIHWFQQKPGQSPRRWIYDTSKLASGIPARFSGSGSGTDYTLTISSMEPEDFATYYCQQWSTNPFTFGQGTKLEIKR: 7.8
7E4-H1K2-IgG1 (antibody, V domains shown) VH: QVQLVQSGAEVKKPGASVKVSCKASGFKFTDYAIHWVRQAPGQSLEWMGVISIYYGEASYNQKFKDRVTLTVDTSASTAYMELSSLRSEDTAVYYCAREDYYGSSSYFDYWGQGTLVTVSS VL: DNVLTQSPSFLSASVGDRVTMTCSASSSVSSSYLHWYQQKPGASPKPLIHRTSNLASGVPSRFSGSGSGTEFTLTISSLQPEDFATYYCQQWSGYPYTFGGGTKLEIK: 19.8

Reported Kd for 7E4-H3K2-IgG1 (antibody, V domains shown) VH: QVQLVQSGAEVVKPGASVKISCKGSGFKFTDYAIHWVRQAPGKSLEWMGVISIYYGEASYNQKFKDKVTLTVDTSASTAYMELSSLRSEDTAIYYCAREDYYGSSSYFDYWGQGTLLTVSS VL: DNVLTQSPSFLSASVGDRVTMTCSASSSVSSSYLHWYQQKPGASPKPLIHRTSNLASGVPSRFSGSGSGTEFTLTISSLQPEDFATYYCQQWSGYPYTFGGGTKLEIK : what is it? 19.3

Numbers sourced from patent US20220073621A1.
